biological target: AOC1 (Homo sapiens); construct: purchased R&D Systems 8297-AO-010; test: AOC1 biochemical assay (Amplex Red); settings: Table 1; read-out: AOC1 IC50
Sequence (P19801 20-751): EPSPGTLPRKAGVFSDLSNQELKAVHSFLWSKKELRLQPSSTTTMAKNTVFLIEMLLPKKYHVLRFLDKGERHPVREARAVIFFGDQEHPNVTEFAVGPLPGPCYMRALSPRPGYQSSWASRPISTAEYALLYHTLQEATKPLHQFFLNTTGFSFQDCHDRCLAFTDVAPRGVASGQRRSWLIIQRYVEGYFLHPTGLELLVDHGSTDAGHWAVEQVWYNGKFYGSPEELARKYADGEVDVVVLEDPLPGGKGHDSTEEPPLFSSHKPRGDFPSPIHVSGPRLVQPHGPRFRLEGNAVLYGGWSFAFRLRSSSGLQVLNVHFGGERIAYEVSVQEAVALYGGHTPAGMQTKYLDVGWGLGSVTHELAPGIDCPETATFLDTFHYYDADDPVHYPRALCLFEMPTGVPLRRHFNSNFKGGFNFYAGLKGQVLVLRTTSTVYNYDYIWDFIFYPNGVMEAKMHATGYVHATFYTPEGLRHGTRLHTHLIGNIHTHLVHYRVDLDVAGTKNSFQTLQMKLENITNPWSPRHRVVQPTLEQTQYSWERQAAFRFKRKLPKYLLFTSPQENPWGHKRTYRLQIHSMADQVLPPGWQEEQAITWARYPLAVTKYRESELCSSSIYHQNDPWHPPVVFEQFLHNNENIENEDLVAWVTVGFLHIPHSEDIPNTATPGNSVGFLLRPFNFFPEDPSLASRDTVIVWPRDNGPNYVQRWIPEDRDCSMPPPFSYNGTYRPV
measure: IC50 (nM)

Recorded IC50 (compound "C[C@@H](F)COc1ncc(-c2cccc(COC(=O)NC(=N)N)n2)cn1" ): 2390

a = N=C(N)NC(=O)OCc1cccc(-c2cnc(OCc3nccs3)nc2)n1
b = CCCOc1ncc(-c2cccc(COC(=O)NC(=N)N)n2)cn1
c = N=C(N)NC(=O)OCc1cccc(-c2cnc(C3CCOCC3)nc2)n1
Challenge: Arrange items by their IC50 values in increasing order. Field: ranking. Enter the labels in the order requested.
Response given: a, b, c
(a: 612 nM, b: 2010 nM, c: 7530 nM)
